Target: human NK3 receptor (Homo sapiens, UniProt P29371)
Construct: membranes prepared from them
Sequence (P29371 whole entry): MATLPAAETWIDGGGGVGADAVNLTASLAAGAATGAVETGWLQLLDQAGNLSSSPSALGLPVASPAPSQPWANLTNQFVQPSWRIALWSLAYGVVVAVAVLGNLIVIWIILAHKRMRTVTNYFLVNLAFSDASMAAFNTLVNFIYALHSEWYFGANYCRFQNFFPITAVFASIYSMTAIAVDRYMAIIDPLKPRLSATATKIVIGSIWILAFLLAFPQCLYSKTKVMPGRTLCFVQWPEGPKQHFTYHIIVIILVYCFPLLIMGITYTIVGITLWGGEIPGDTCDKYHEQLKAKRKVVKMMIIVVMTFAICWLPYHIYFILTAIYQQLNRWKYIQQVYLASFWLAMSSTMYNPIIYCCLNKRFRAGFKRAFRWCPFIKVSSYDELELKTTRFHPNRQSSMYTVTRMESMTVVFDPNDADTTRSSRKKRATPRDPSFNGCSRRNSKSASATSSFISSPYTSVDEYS
Test: NK3 receptor efficacy and potency assay (FLIPR Calcium 4 assay, BHK cells; agonist and antagonist mode versus NKB)
Conditions: read-out: Potency cIC50
pIC50: −log10 of the molar value.
OBSERVABLE: pIC50

In the examples that follow, each entry is paired with its recorded pIC50.
| COMPOUND | pIC50 |
| --- | --- |
| CC(C)(C)N1CCN(Cc2c(C(=O)N[C@H](c3cccc(F)c3)C3CC3)c3cccc(F)c3c(=O)n2-c2ccccc2)CC1 | 8.20 |
| CC(C)(C)N1CCC(Cc2c(C(=O)N[C@H](c3cccc(F)c3)C3CC3)c3cccc(Cl)c3c(=O)n2-c2ccccc2)CC1 | 8.00 |
| CC[C@H](NC(=O)c1c(CN2CCC2)n(-c2ccccc2)c(=O)c2ccccc12)c1ccccc1 | 6.32 |
| CC[C@H](NC(=O)c1c(CN2CCN(C(C)(C)C)CC2)n(-c2ccccc2)c(=O)c2c(Cl)cccc12)c1ccccc1 | 8.25 |
| Cc1c(C(=O)N[C@H](c2ccccc2)C2CC2)c2cccc(F)c2c(=O)n1-c1ccccc1 | 7.62 |

1: CC[C@H](NC(=O)c1c(CN2CCCC2=O)n(-c2ccccc2)c(=O)c2ccccc12)c1ccccc1
2: CCC(CO)NCc1c(C(=O)N[C@@H](CC)c2ccccc2)c2ccccc2c(=O)n1-c1ccccc1 (stereo partly drawn)
3: O=C(NC(c1cccc(F)c1)C1CC1)c1c(CN2CCN(CCN3CCOCC3)CC2)n(-c2ccccc2)c(=O)c2ccccc12 (stereo not drawn)
4: O=C(NC(c1cccc(F)c1)C1CC1)c1c(CN2CCN(CCc3ccccc3)CC2)n(-c2ccccc2)c(=O)c2ccccc12 (stereo not drawn)
**Query** Order field: pIC50 | Direction: descending (largest first) A ranking is expressed here by listing the labels in the requested order.
**Result** 3, 4, 1, 2
(3: 7.68, 4: 7.36, 1: 6.57, 2: 6.21)

---

Biological target: human NK3 receptor (Homo sapiens, UniProt P29371)
Construct: expressed in transfected cells; membranes prepared from them
Assay: NK3 receptor binding assay (SPA-based competition binding with 125I-NKB, membranes of BHK cells)
Details: table of Example 10; affinity obtained as described in Example 9; read-out: Affinity Ki
OBSERVABLE: Ki (nM)

| COMPOUND | TEST_SYSTEM | RESULT_UNITS | EXPERIMENTAL_VALUE |
| --- | --- | --- | --- |
| CC[C@H](NC(=O)c1c(CN2CCC(CCN3CCOCC3)CC2)n(-c2ccccc2)c(=O)c2ccccc12)c1ccccc1 [Example 2cw] | human NK3 receptor (Homo sapiens, UniProt P29371) | nM | 8.4 |

1: O=C(NC(c1cccc(F)c1)C1CC1)c1c(CN2CCN(CCN3CCOCC3)CC2)n(-c2ccccc2)c(=O)c2ccccc12 (centres unmarked) [Example 2hs]
2: O=C(N[C@H](c1cccc(F)c1)C1CC1)c1c(CN2CCCC2=O)n(-c2ccccc2)c(=O)c2c(Cl)cccc12 [Example 3d]
**Query** Please compare: 1 and 2 . Report which one has the smaller Ki value. I would appreciate it if you answered with the label of your choice.
**Result** 1
(1: 7.5 nM, 2: 16 nM)

---

Target: human NK3 receptor (Homo sapiens)
Construct: expressed in transfected cells; membranes prepared from them
Assay: NK3 receptor binding assay (SPA-based competition binding with 125I-NKB, membranes of BHK cells)
Conditions: table of Example 10; affinity obtained as described in Example 9; read-out: Affinity Ki
OBSERVABLE: Ki (nM)

In the examples that follow, each entry is paired with its recorded Ki.
| COMPOUND | EXPERIMENTAL_VALUE |
| --- | --- |
| Cc1c(C(=O)N[C@H](c2cccc(F)c2)C2CCC2)c2cccc(Cl)c2c(=O)n1-c1ccccc1 | 21 |
| CC(C)(C)N1CCC(Cc2c(C(=O)N[C@H](c3cccc(F)c3)C3CC3)c3cccc(Cl)c3c(=O)n2-c2ccccc2)CC1 | 7 |
| O=C(NC(c1cccc(F)c1)C1CC1)c1c(CN2CCN(CCN3CCCC3)CC2)n(-c2ccccc2)c(=O)c2ccccc12 (centres unmarked) | 14 |

P: CC[C@H](NC(=O)c1c(CN2CCCNCC2)n(-c2ccccc2)c(=O)c2c(Cl)cccc12)c1ccccc1
Q: CC(=O)N(C)C1(c2ccccc2)CCN(Cc2c(C(=O)NC(c3cccc(F)c3)C3CC3)c3ccccc3c(=O)n2-c2ccccc2)CC1 (centres unmarked)
R: CC[C@H](NC(=O)c1c(CN2CCN(c3ccc4ncccc4c3)CC2)n(-c2ccccc2)c(=O)c2ccccc12)c1ccccc1
S: CC[C@H](NC(=O)c1c(CN2CCN(C(C)(C)C)CC2)n(-c2ccccc2)c(=O)c2c(F)cccc12)c1ccccc1
**Query** Order field: Ki | Direction: descending (largest first) A ranking is expressed here by listing the labels in the requested order.
**Result** P, R, S, Q
